System: Hepatitis C virus NS3 helicase
Experiment: HCV NS3 helicase inhibitors, primary screen, biochemical, fluorescence polarization, NIH Clinical Collection (AID 743270)
Settings: NS3 helicase binding to Cy5-dT15 DNA, hits give high values, concentration not given here
quantityName: inhibition (%)
A number alone suffices; assume %.

Name the recorded inhibition for `C[N+]1(C)CCN(c2ccccc2)CC1` .
6.73

Name the recorded inhibition for `C[C@]12CCC(=O)C=C1CC[C@@H]1[C@@H]2CC[C@@]2(C)[C@H]1CC[C@]2(C)O` .
0.4

Name the recorded inhibition for CC(C)(O)[C@@H]1[C@H]2OC(=O)[C@@H]1[C@]1(O)C[C@H]3O[C@]34C(=O)O[C@H]2[C@]14C (tested in a mixture with another compound) .
0.4

Name the recorded inhibition for `CC(C)[C@]12O[C@H]1[C@@H]1O[C@]13[C@]1(O[C@H]1C[C@H]1C4=C(CC[C@@]13C)C(=O)OC4)[C@@H]2O` .
-2.77

Name the recorded inhibition for `Clc1ccc(CON=C(Cn2ccnc2)c2ccc(Cl)cc2Cl)c(Cl)c1` .
13.1

Name the recorded inhibition for `c1ccc2c(c1)Nc1ccccc1S2` .
1.53

Name the recorded inhibition for `CCN(C(C)=O)c1cccc(-c2ccnc3c(C#N)cnn23)c1` .
-1.97

Name the recorded inhibition for COC(=O)N1CCN(C(=O)Cc2ccc(Cl)c(Cl)c2)C(CN2CCCC2)C1 (stereo not given) .
4.36

Name the recorded inhibition for NC1=NC(=O)C(c2ccccc2)O1 (stereo not given) .
2.77

Name the recorded inhibition for NC(=O)CS(=O)C(c1ccccc1)c1ccccc1 (stereo not given) .
0.4
